List of viability at 28.5 h, 10 µM values.
assay: in vitro; settings: human, hela cells, % viability

{"compound": "CCC(CN1CCCC1)n1cncc1-c1cn(C)nc1C (stereo not shown)", "viability at 28.5 h, 10 µM (%)": 102}
{"compound": "CC(C)(C)c1ccccc1NC(=O)N(CCN)Cc1cc(F)cc(F)c1 [CBK046263C]", "viability at 28.5 h, 10 µM (%)": 98.6}
{"compound": "CCCCC(=O)/N=C(\\N)Nc1nc2ccccc2o1", "viability at 28.5 h, 10 µM (%)": 87.8}
{"compound": "COc1ccc(C(=O)Nc2cncc(OC3CCNCC3)n2)cc1 [CBK036370T]", "viability at 28.5 h, 10 µM (%)": 94.4}
{"compound": "CCOc1ccc2nc(NC3=NC(CC(=O)O)C(=O)N3)nc(C)c2c1 (stereo not shown)", "viability at 28.5 h, 10 µM (%)": 103}
{"compound": "Cc1nc(C)c(C(=O)N2CCN(Cc3ccccc3)CC2)s1", "viability at 28.5 h, 10 µM (%)": 101}
{"compound": "Cc1cc(/C=C(/C#N)c2nc3ccccc3[nH]2)c(C)n1-c1ccc(N2CCOCC2)cc1", "viability at 28.5 h, 10 µM (%)": 94}
{"compound": "Cc1ccn2c(CN3CCC(n4nc(C)cc4C)CC3)c(C)nc2c1", "viability at 28.5 h, 10 µM (%)": 83.6}
{"compound": "CC1CN(C2CCN(S(=O)(=O)c3cccs3)CC2)C(=O)O1 (stereo not shown)", "viability at 28.5 h, 10 µM (%)": 112}
{"compound": "Cn1c(=O)c(C(=O)Nc2ccc(OCc3ccccc3F)cc2)nc2ccccc21", "viability at 28.5 h, 10 µM (%)": 103}
{"compound": "Cc1ccc(OCCn2c(=N)n(CCN3CCOCC3)c3ccccc32)cc1 [CBK269085B]", "viability at 28.5 h, 10 µM (%)": 97.9}
{"compound": "O=S(=O)(Nc1nccnc1-c1ccc2c(c1)OCO2)c1ccc(Cl)cc1", "viability at 28.5 h, 10 µM (%)": 92.4}
{"compound": "C=CCn1c2cc(C)oc2c2cnn(CC(=O)N(C)C)c(=O)c21", "viability at 28.5 h, 10 µM (%)": 101}
{"compound": "O=C(NCC(=O)N1CCc2ccccc2C1)C1CCCCC1", "viability at 28.5 h, 10 µM (%)": 107}
{"compound": "Cc1onc(-c2c(Cl)cccc2Cl)c1N(C)C(=O)N1CCCCC1", "viability at 28.5 h, 10 µM (%)": 109}
{"compound": "CNC(=O)c1sc2ccccc2c1C1CCN(Cc2cnn(-c3ccc(F)cc3)c2)C1 (stereo not shown)", "viability at 28.5 h, 10 µM (%)": 84.1}
{"compound": "N#Cc1ccccc1CSc1nc2ccc([N+](=O)[O-])cc2[nH]1", "viability at 28.5 h, 10 µM (%)": 84.5}
{"compound": "CNC(=O)C1(Cc2ccc(-c3ccccc3)cc2)CCN(C(=O)c2cccc(OC)c2)CC1", "viability at 28.5 h, 10 µM (%)": 105}
{"compound": "CC(=O)Nc1ccc(S(=O)(=O)N2CCC(n3c(=O)[nH]c4ccccc43)CC2)cc1", "viability at 28.5 h, 10 µM (%)": 92.3}
{"compound": "Cc1cc(C)cc(-c2ccc(CC3(C(=O)NCC4CCCOC4)CCOCC3)cc2)c1 (stereo not shown)", "viability at 28.5 h, 10 µM (%)": 96.5}
{"compound": "CCOC(=O)c1cnc(SC(C)C(=O)N2CCc3ccccc32)nc1N (stereo not shown)", "viability at 28.5 h, 10 µM (%)": 86.9}
{"compound": "CC(O)CNc1nccnc1-c1ccc(S(C)(=O)=O)cc1 (stereo not shown)", "viability at 28.5 h, 10 µM (%)": 96.1}
{"compound": "CSCCCNC(=O)N1CCN(CCc2ccccc2)CC1", "viability at 28.5 h, 10 µM (%)": 81.6}
{"compound": "Cc1nn(C)cc1C(=O)N1CCCCC1c1nc2ccccc2[nH]1 (stereo not shown)", "viability at 28.5 h, 10 µM (%)": 84.7}
{"compound": "Cc1c2c(nn1C)CSc1ccccc1C2=O", "viability at 28.5 h, 10 µM (%)": 92.8}
{"compound": "O=S(=O)(Nc1nnn[nH]1)c1ccccc1Br", "viability at 28.5 h, 10 µM (%)": 96.3}
{"compound": "c1ccc2c(c1)CSCC2Oc1cncc(N2CCNCC2)n1 (stereo not shown) [CBK172356T]", "viability at 28.5 h, 10 µM (%)": 94.9}
{"compound": "CCOC(=O)c1ccc(-n2c(CCC(=O)O)ccc2-c2cccs2)cc1O", "viability at 28.5 h, 10 µM (%)": 103}
{"compound": "Cc1ccccc1OC(C)C(=O)NCCCN1CCOCC1 (stereo not shown)", "viability at 28.5 h, 10 µM (%)": 112}
{"compound": "Nc1ncc(-c2ccoc2)nc1-c1ccc(C(=O)N2CCOCC2)cc1", "viability at 28.5 h, 10 µM (%)": 101}
{"compound": "Cc1cc(NC(=O)CN2CCOC(CNc3cccnn3)C2)on1 (stereo not shown)", "viability at 28.5 h, 10 µM (%)": 109}
